Quick reference for melting point among some molecules

CC(=O)SCC(CSC(C)=O)C(=O)N1c2ccccc2CCC1C(=O)O (stereo unspecified) = 149 to 151 °C

Please give measured melting point of the following entry: COc1c(N2CCC(O)C(CO)C2)c(F)cc2c(=O)c(C(=O)O)cn(C3CC3)c12 (stereo unspecified)
115 to 125 °C

Give melting point for COC(=O)C(CS)NC(=O)C(=O)NCCS (stereo unspecified)
112 °C

Respond only with melting point recorded for `O=C(CC1CCC1)N[C@H]1CC[C@H](CCN2CCN(c3nccc4c3CCO4)CC2)CC1`
193 °C

Determine from records and report melting point for `O=C(CC1CCCC1)c1c(-c2ccc3cc(O)ccc3c2)oc2ccccc12`
189 to 190 °C

State its melting point: COc1ccc(C2=NNC(=O)[C@H]3CC=CC[C@@H]23)cc1OC (relative stereo)
173 to 174 °C

----------
Listing of recorded melting point by entry.

Please report the measured melting point for O=C(NN1CCCCC1)c1ccc(N2CCN(C(=O)N3CCC(c4cn[nH]c4)C3)c3ccccc32)cc1 (centres undefined)
251 °C

Specify reported melting point for the compound shown: `O=c1[nH]c2cc(C(F)(F)F)ccc2n(CCc2ncc[nH]2)c1=O`
> 250 °C

Answer with the recorded melting point for the compound listed here: `Clc1cnc2c(-c3ccccc3)nc(-c3ccccc3)nc2c1`
120 to 121 °C

Give recorded melting point. `COc1cc2c(cc1C=O)OCC2`
82 to 84 °C

----------
Collected melting point values appear next to each entry.

Reference set (10 entries):
CCOC(=O)c1cn(Cc2ccc(Oc3ccccc3)cc2)nc1OCc1ccc(OCc2nc(-c3ccccc3)oc2C)c(OC)c1 = 127 to 128 °C
Nc1nc(-c2ccco2)c(C(=O)C2CCC(=O)CC2)s1 = 232 to 235 °C
O=C(Nc1n[nH]c(=S)s1)NC(CC1CCCCC1)C(=O)NCCc1ccccc1 (stereo unspecified) = 199 to 200 °C
CCCCc1nn(-c2cc([N+](=O)[O-])ccc2Cl)c(C(=O)O)c1Cc1ccc(Br)cc1F = > 55 °C
OCC(O)CNc1nnc(-c2ccc(F)c(F)c2Nc2ccc(I)cc2F)o1 (stereo unspecified) = 157 to 159 °C
O=C(O)COc1ccc2c(=O)c3ccc(Cl)cc3oc2c1Cl = 270 °C
CCCn1c(=O)c2c(nc(/C=C/c3ccc(OCOC)c(OCOC)c3)n2C)n(CCC)c1=O = 172 to 173 °C
COc1cc(C(=O)N(C(C)C)C2CCCCC2)ccc1CN(C(=O)CCl)c1cccnc1O = 127 to 129 °C
COc1ccc(C(=O)C(=O)c2cccc(-c3ccc(S(C)(=O)=O)cc3)c2-c2ccccc2)cc1OC = 181 to 183 °C
CCn1nnc(Nc2ccc3nc(NCc4ccccc4OC)ccc3c2)n1 = 190 °C

Quickly give me recorded melting point for `CCn1c2c(c3ccccc31)Cc1c(CO)c(CO)c(C)n1C2`
216 to 217 °C

Please give measured melting point of the following entry: `CC[C@@H](c1ccccc1)N(Cc1ccc(C(=O)O)c(F)c1F)S(=O)(=O)c1ccc(Cl)cc1`
127 to 129 °C

Provide one value: measured melting point of `Brc1ccccc1P(c1cccc2ccccc12)c1cccc2ccccc12`
206 to 207 °C

Quick one: give measured melting point for CC(C#N)(COc1ccc(Cl)cc1)NS(=O)(=O)Cc1ccccc1 (stereo unspecified)
120 to 121 °C

Output measured melting point for this item: `Cc1nc(-c2ccc(C(F)(F)F)cc2)sc1CCOc1ccc(CC(=O)O)cc1`
128 to 130 °C

Identify measured melting point corresponding to O=C1NC(=O)C(=Cc2ccc3c(c2)CCC(Cc2ccccc2)O3)S1 (single isomer, unassigned; (-))
255 °C

Please look at this compound and report its melting point: `Cc1cccc(C)c1NCC(N)=O`
89 to 92 °C

Give the measured melting point for `O=C(O)c1ccccc1SCCCOc1ccc(CCc2ccncc2)cc1`
151 to 153 °C

Look up and state reported melting point for `O=C(CN1CCC(Cc2ccccc2)CC1)Nc1ccc2[nH]cnc2c1`
185 to 189 °C

Given the compound `COc1cc2ccc(Br)cc2cc1C12CC3CC(CC(C3)C1)C2` , write its reported melting point.
164 to 168 °C

Specify melting point for `CC(C)CSCc1c(-c2ccc(S(C)(=O)=O)cc2)cnn(-c2ccc(F)cc2)c1=O` and stop.
45 to 60 °C

Give the reported melting point for this compound. `CCN(c1cccc2cc(C(N)=S)[nH]c12)S(=O)(=O)c1cccs1`
163 °C

Return reported melting point. Input compound: `COc1cc(N)c2nccc(C)c2c1Oc1cccc(C(F)(F)F)c1`
113 to 115 °C

Supply measured melting point of `FC(F)(F)C(c1ccccc1)(c1ccccc1)c1ccccc1` in your reply.
158 to 159 °C

Please indicate melting point recorded for `COc1cc(C(=S)N2CCNCC2)cc(OC)c1OC`
116 to 118 °C

Given `O=C(CCc1ccc(O)c(C=Nc2ccccc2O)c1)ON1C(=O)CCC1=O` , respond with its melting point.
170 °C

----------
Metric: melting point

Solved entries:
CSc1sc(-c2nccs2)c2c1C(=O)CCC2(C)C = 188 to 190 °C
O=C1Cc2cc(F)ccc2N1 = 131 to 133 °C
CC1=C(C)C[C@H]2C(=O)CC(=O)[C@H]2C1 = 157 to 158 °C
CC=NN(C)C1=NOCc2ccc(Cl)cc21 = 111 to 112 °C
Cc1ccc(C)c(C2C(=O)Oc3c2cc(C(C)(C)C)cc3C(C)(C)C)c1 (stereo unspecified) = 93 to 97 °C

Provide measured melting point value, entry: `Clc1ccc(/C=C/C2=CCN(Cc3ccc(Cl)cc3)CC2)cc1`
127 °C

----------
Listing: melting point of selected compounds

For orientation, consider the following solved cases.
NC(=O)NC(=S)Nc1ccccc1 = 176 to 180 °C
CC[C@H](Cn1cnnn1)n1cnc2cc3c(=O)n([C@H](C)Cn4ncnn4)nnc3cc2c1=O = 198 to 200 °C
O=C(O)Cc1c(C(=O)c2cccc(Cl)c2)[nH]c2ccc(F)cc12 = 208 to 212 °C

Determine from records and report melting point for `O=C(Nc1cc(Cl)cc(Cl)c1)c1cc(I)ccc1O`
244 to 245 °C

Report melting point, nothing else, for this compound: `O=C(CN1CCC(Cc2ccccc2)CC1)Nc1ccc2[nH]c(=S)oc2c1`
183 to 184 °C

----------
# reported melting point; entries follow

# count of solved cases: 3
CC(Cl)(Cl)C(NC(=O)c1cccnc1)NC(=NC#N)Nc1ccc(Cl)nc1 (stereo not given) = 212 to 213 °C
COC(=O)/C=C/c1cccc(-c2c(CC(=O)Nc3ccc(Cl)cc3C(F)(F)F)c(=O)oc3cc(Cl)c(C)cc23)c1 = 202 to 204 °C
ON=CCc1ccccc1 = 90 to 94 °C

Supply measured melting point of `O=C1c2c(-c3ccccc3)cc(CCl)nc2OCCN1Cc1cc(C(F)(F)F)cc(C(F)(F)F)c1` in your reply.
183 to 184 °C

Report melting point, nothing else, for this compound: `CSC(=S)NCc1cc(=O)c(OC(c2ccccc2)c2ccccc2)cn1OC(c1ccccc1)c1ccccc1`
176 to 178 °C

----------
Metric: melting point (°C)

[1] CCS(=O)(=O)Nc1cc(-n2c(=O)cc(C(F)(F)F)n(N)c2=O)c(F)cc1C#N
[2] COc1cc(Nc2nccc(C(C)(C)C)n2)cc(OC)c1OC
Select one. Lower melting point: 1 or 2 In your reply, give the label of the chosen option.
2

----------
Metric: melting point

The cases that follow already have their melting point on record.
CN(C)C1=CC(=O)c2ccccc2OC1 = 136 °C
N#CCc1nc(N)nc(N)c1-c1ccc(Cl)cc1Cl = 249 to 251 °C

Look up and report measured melting point for this entry: `Nc1cc(=O)nc(Nc2ccc(F)cc2)n1-c1ccccc1`
225 to 227 °C

Supply recorded melting point for `Cc1nc(-c2ccc(I)cc2)no1` here.
121 to 122 °C

Respond only with melting point recorded for `CCN1c2ncc(CSc3ccncc3)cc2C(=O)N(C)c2ccc(Cl)nc21`
140 to 142 °C

Provide measured melting point value, entry: `O=C(O)c1ccc(-c2ccoc2)s1`
147 °C

----------
// reported melting point per item

Worked set:
CC(C)(CO)c1ccc(C(=O)Nc2cn3cc(Cl)ccc3n2)cc1 = 240 to 242 °C
CC(C)c1nc(N(C)S(C)(=O)=O)nc(-c2ccc(F)cc2)c1/C=C/C#N = 134 °C
Cc1cccc(NC(=O)NCc2cccc3c2C(=O)N(C2CCC(=O)NC2=O)C3=O)c1 (stereo unspecified) = > 260 °C
Fc1ccc(Sc2c[nH]c3ncccc23)cc1 = 183 to 184 °C

Look up melting point of `CCOP(=O)(OCC)c1ccc2cccc(-c3cccc4ccccc34)c2n1` and report it.
128 °C

Return melting point for the following compound: `Cc1cc(O)c(O)cc1Br`
92 to 98 °C

For the compound `COc1c(N)cc(C(=O)O)cc1S(N)(=O)=O` , give its measured melting point value.
210 °C

Fill in reported melting point for this entry: `COc1ccc(Cc2nc3cc(Cl)cc(CC=NO)c3o2)cc1OC1CCCC1`
149 to 151 °C

Give reported melting point value for CC(=S)NCC1CN(c2ccc(NC=O)c(F)c2)C(=O)O1 (stereo unspecified)
177 to 178 °C

Give the reported value of melting point for this record: `COc1ccc(/C=C/CCCCOc2ccc(C(=O)CCCC(=O)O)cc2CCC(=O)O)cc1`
113 to 114 °C

Specify reported melting point for the compound shown: COc1ccc(C)cc1NC(=O)Nc1ccc(N2CCN(C(=O)Nc3ccc(C(O)CO)cc3C)CC2)cc1 (stereo unspecified)
112 to 113 °C

Could you please provide reported melting point for `Cc1ccc(S(=O)(=O)OCC2CCN(c3nc4ccccc4s3)CC2)cc1` ? Thanks!
184 °C

Tell me melting point reported for Cc1cc(C[C@H]2NC(=O)O[C@H]2c2ccc(F)cc2)cc(OC(F)(F)C(F)F)c1 (racemic)
107 to 108 °C

Please list melting point recorded for the compound COCN1C(C)=C(C(=O)O)C(c2ccccc2)C(C(=O)OCOC(=O)C(C)(C)C)=C1C (single isomer, unassigned; (+))
121 to 122 °C

For the compound `Cc1nnc2n1-c1ccc(NC(=O)NCCO)cc1C(c1ccccc1F)=NC2` , report melting point.
228 to 230 °C

Determine from records and report melting point for `CC(C)(CO)NC(=O)c1ccccc1-c1ccccc1`
38.5 to 40.5 °C

Provide only the value of recorded melting point for `CCCCCC(=O)C=Cc1ccc(O)c(O)c1`
130 to 131 °C

Recall and state the measured melting point for CN1CCc2cc([N+](=O)[O-])c(O)cc2C(c2ccc3c(c2)CCC3)C1 (stereo unspecified) .
58 to 63 °C

Tell me its melting point given `COc1ccc([C@H]2SC=C(c3ccccc3)N(CCN(C)C)C(=O)[C@H]2OC(C)=O)cc1` as the entry.
149 to 151 °C

Attribution: a melting point compilation (Tetko et al.; mined from patent text by program, amines drawn as free bases though some values may be those of a salt)
